This collection of values is drawn from PubChem BioAssay AID1963835.

Test system: 699152-130-R-J1-PDC complex spheroid viability
METHOD_SUMMARY: Anticancer human tumor 699152-130-R-J1-PDC patient-derived pancreatic carcinoma cell line growth inhibition [POLQ]
CONDITION_NOTES: second compound 0.1 µM; first compound 0.316 µM; active compounds read low
Procedure: Multicellular complex tumor spheroid response to Polymerase (POL) inhibitors (novobiocin, ART-558, RP6685) in combination with a variety of drugs and investigational agents in selected tumor cell lines The POL inhibitors (novobiocin, ART-558, and RP6685) were evaluated both individually and in combination with standard of care and investigational anticancer small molecules within a complex spheroid model of solid tumors. . […]
Readings of viability, T/C for the listed molecules
Your answer is read as %, so omit the unit and give the number.

Known results for molecules:
COc1cc2cc(C(=O)CCC(=O)O)sc2cc1OC + Cc1cccc(N(C)C(=O)C2C(O)CCN2c2nc(C)cc(C(F)(F)F)c2C#N)c1: 106
Nc1ccn(C2OC(CO)C(O)C2(F)F)c(=O)n1 (stereo not drawn) + Nc1ccc(C#CCN(C(=O)Cc2ncc(C(F)(F)F)cc2C(F)(F)F)c2ccc(F)cc2)nn1: 52

Continue with the molecule presented below.
Look up viability, T/C for this molecule: CC1COCCN1c1cc(-c2ccnn2C)c2ccnc(-c3ccn[nH]3)c2n1 (stereo not drawn) + Nc1ccc(C#CCN(C(=O)Cc2ncc(C(F)(F)F)cc2C(F)(F)F)c2ccc(F)cc2)nn1
75.4

---

Tested on: 699152-130-R-J1-PDC complex spheroid viability
METHOD_SUMMARY: Anticancer human tumor 699152-130-R-J1-PDC cell line growth inhibition [POLQ];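 also: spheroids exposed to agents for 7 days before viability reading; percent of DMSO vehicle control viability so 100% = vehicle and 0% = no viable signal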
CONDITION_NOTES: second compound 3.16 µM; first compound 0.1 µM; active compounds read low
RESULT_TYPE: viability, T/C (%)
Value expressed in %; do not type the unit.

Consider the worked cases shown below.
C#Cc1c(F)ccc2cc(O)cc(-c3ncc4c(N5CC6CCC(C5)N6)nc(OCC56CCCN5CC(F)C6)nc4c3F)c12 (stereo not given) + Cc1cccc(N(C)C(=O)C2C(O)CCN2c2nc(C)cc(C(F)(F)F)c2C#N)c1: 17.1
COc1ccc([C@@H](O)c2cc(-c3ncnc4cc(N5CCOCC5)ccc34)c(F)cc2Cl)nn1 + Cc1cccc(N(C)C(=O)C2C(O)CCN2c2nc(C)cc(C(F)(F)F)c2C#N)c1: 94.7
CNCc1ccc(-c2[nH]c3cc(F)cc4c3c2CCNC4=O)cc1 + Cc1cccc(N(C)C(=O)C2C(O)CCN2c2nc(C)cc(C(F)(F)F)c2C#N)c1: 87.7
O=C(Nc1ccc(O)c(NS(=O)(=O)c2ccc(F)cc2)c1)c1ccc(-c2ccccc2)cc1 + Cc1cccc(N(C)C(=O)C2C(O)CCN2c2nc(C)cc(C(F)(F)F)c2C#N)c1: 112

Please find the next compound below.
# query: viability, T/C of entry C=CC(=O)N1CCN(c2nc(=O)n(-c3c(C)ccnc3C(C)C)c3nc(-c4c(O)cccc4F)c(F)cc23)C(C)C1 (stereo not given) + COC1C(OC(N)=O)C(O)C(Oc2ccc3c(O)c(NC(=O)c4ccc(O)c(CC=C(C)C)c4)c(=O)oc3c2C)OC1(C)C
92.8

---

Entries and their viability, T/C values follow.
Test system: 699152-130-R-J1-PDC complex spheroid viability
METHOD_SUMMARY: Anticancer human tumor 699152-130-R-J1-PDC cell line growth inhibition [POLQ];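 also: spheroids exposed to agents for 7 days before viability reading; percent of DMSO vehicle control viability so 100% = vehicle and 0% = no viable signal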
CONDITION_NOTES: second compound 0.316 µM; first compound 1 µM; active compounds read low
Unit % implied. Number only.

For orientation, consider the following solved cases.
CCc1cc2c(N3CCc4c(cc(Cn5ccnc5)cc4-c4cn(C)nc4C(F)(F)F)C3=O)ccnc2c(OC)n1 + COC1C(OC(N)=O)C(O)C(Oc2ccc3c(O)c(NC(=O)c4ccc(O)c(CC=C(C)C)c4)c(=O)oc3c2C)OC1(C)C: 99
Nc1ccn(C2OC(CO)C(O)C2(F)F)c(=O)n1 (stereo unspecified) + Cc1cccc(N(C)C(=O)C2C(O)CCN2c2nc(C)cc(C(F)(F)F)c2C#N)c1: 44.6
C=CC(=O)N1CCN(c2nc(=O)n(-c3c(C)ccnc3C(C)C)c3nc(-c4c(O)cccc4F)c(F)cc23)C(C)C1 (stereo unspecified) + Nc1ccc(C#CCN(C(=O)Cc2ncc(C(F)(F)F)cc2C(F)(F)F)c2ccc(F)cc2)nn1: 118
CCc1c2c(nc3ccc(O)cc13)-c1cc3c(c(=O)n1C2)COC(=O)[C@]3(O)CC + Nc1ccc(C#CCN(C(=O)Cc2ncc(C(F)(F)F)cc2C(F)(F)F)c2ccc(F)cc2)nn1: 8.12

# query: viability, T/C | item COc1ccc([C@@H](O)c2cc(-c3ncnc4cc(N5CCOCC5)ccc34)c(F)cc2Cl)nn1 + Nc1ccc(C#CCN(C(=O)Cc2ncc(C(F)(F)F)cc2C(F)(F)F)c2ccc(F)cc2)nn1 | system: 699152-130-R-J1-PDC complex spheroid viability
70.9

# value lookup — system 699152-130-R-J1-PDC complex spheroid viability, readout viability, T/C, item CCCS(=O)(=O)Nc1ccc(F)c(C(=O)c2c[nH]c3ncc(-c4ccc(Cl)cc4)cc23)c1F + Nc1ccc(C#CCN(C(=O)Cc2ncc(C(F)(F)F)cc2C(F)(F)F)c2ccc(F)cc2)nn1
175

Field: viability, T/C (699152-130-R-J1-PDC complex spheroid viability). Entry: O=C(c1cc(Cc2n[nH]c(=O)c3ccccc23)ccc1F)N1CCN(C(=O)C2CC2)CC1 + Cc1cccc(N(C)C(=O)C2C(O)CCN2c2nc(C)cc(C(F)(F)F)c2C#N)c1
111

Identify the measured viability, T/C of CNCc1ccc(-c2[nH]c3cc(F)cc4c3c2CCNC4=O)cc1 + Cc1cccc(N(C)C(=O)C2C(O)CCN2c2nc(C)cc(C(F)(F)F)c2C#N)c1 for 699152-130-R-J1-PDC complex spheroid viability.
111

# query: viability, T/C | item COc1cc2cc(C(=O)CCC(=O)O)sc2cc1OC + COC1C(OC(N)=O)C(O)C(Oc2ccc3c(O)c(NC(=O)c4ccc(O)c(CC=C(C)C)c4)c(=O)oc3c2C)OC1(C)C | system: 699152-130-R-J1-PDC complex spheroid viability
108

Give the reported viability, T/C for COc1ccc([C@@H](O)c2cc(-c3ncnc4cc(N5CCOCC5)ccc34)c(F)cc2Cl)nn1 + Cc1cccc(N(C)C(=O)C2C(O)CCN2c2nc(C)cc(C(F)(F)F)c2C#N)c1 (system: 699152-130-R-J1-PDC complex spheroid viability).
84

Value wanted: viability, T/C (699152-130-R-J1-PDC complex spheroid viability) of entry CC1COCCN1c1cc(-c2ccnn2C)c2ccnc(-c3ccn[nH]3)c2n1 (stereo unspecified) + COC1C(OC(N)=O)C(O)C(Oc2ccc3c(O)c(NC(=O)c4ccc(O)c(CC=C(C)C)c4)c(=O)oc3c2C)OC1(C)C
56.4

Entry CCc1cc2c(N3CCc4c(cc(Cn5ccnc5)cc4-c4cn(C)nc4C(F)(F)F)C3=O)cc(C)nc2c(OC)n1 + COC1C(OC(N)=O)C(O)C(Oc2ccc3c(O)c(NC(=O)c4ccc(O)c(CC=C(C)C)c4)c(=O)oc3c2C)OC1(C)C , system 699152-130-R-J1-PDC complex spheroid viability: what viability, T/C was measured?
96.1

Param readout = viability, T/C; param system = 699152-130-R-J1-PDC complex spheroid viability; param query = CC1COCCN1c1cc(C2(S(C)(=N)=O)CC2)nc(-c2ccnc3[nH]ccc23)n1 (stereo unspecified) + COC1C(OC(N)=O)C(O)C(Oc2ccc3c(O)c(NC(=O)c4ccc(O)c(CC=C(C)C)c4)c(=O)oc3c2C)OC1(C)C ; response: value
88.3

viability, T/C of CCc1cc2c(N3CCc4c(cc(Cn5ccnc5)cc4-c4cn(C)nc4C(F)(F)F)C3=O)ccnc2c(OC)n1 + Cc1cccc(N(C)C(=O)C2C(O)CCN2c2nc(C)cc(C(F)(F)F)c2C#N)c1 on 699152-130-R-J1-PDC complex spheroid viability?
102

Please tell me: viability, T/C of CCc1c2c(nc3ccc(O)cc13)-c1cc3c(c(=O)n1C2)COC(=O)[C@]3(O)CC + Cc1cccc(N(C)C(=O)C2C(O)CCN2c2nc(C)cc(C(F)(F)F)c2C#N)c1 , system 699152-130-R-J1-PDC complex spheroid viability?
8.39

699152-130-R-J1-PDC complex spheroid viability / viability, T/C / COc1cc2cc(C(=O)CCC(=O)O)sc2cc1OC + Cc1cccc(N(C)C(=O)C2C(O)CCN2c2nc(C)cc(C(F)(F)F)c2C#N)c1 : value?
102

Request body: readout viability, T/C, system 699152-130-R-J1-PDC complex spheroid viability, query COc1cccc(OCCCN)c1-c1cc(Nc2cnc(C#N)cn2)n[nH]1 + Cc1cccc(N(C)C(=O)C2C(O)CCN2c2nc(C)cc(C(F)(F)F)c2C#N)c1 . Return the value.
46.7

Which measured viability, T/C belongs to CC(C)n1c(=O)n(C)c2cnc3cc(F)c(-c4ccc(OCCCN5CCCCC5)nc4)cc3c21 + Cc1cccc(N(C)C(=O)C2C(O)CCN2c2nc(C)cc(C(F)(F)F)c2C#N)c1 , tested on 699152-130-R-J1-PDC complex spheroid viability?
118

Field: viability, T/C (699152-130-R-J1-PDC complex spheroid viability). Entry: CC1COCCN1c1cc(-c2ccnn2C)c2ccnc(-c3ccn[nH]3)c2n1 (stereo unspecified) + Cc1cccc(N(C)C(=O)C2C(O)CCN2c2nc(C)cc(C(F)(F)F)c2C#N)c1
58.6

Item: CC1COCCN1c1cc(C2(O)CC3CCC(C2)O3)c2cnn(-c3ccn[nH]3)c2n1 (stereo unspecified) + COC1C(OC(N)=O)C(O)C(Oc2ccc3c(O)c(NC(=O)c4ccc(O)c(CC=C(C)C)c4)c(=O)oc3c2C)OC1(C)C Test system: 699152-130-R-J1-PDC complex spheroid viability Read-out: viability, T/C Value: ?
52.1

Give viability, T/C (699152-130-R-J1-PDC complex spheroid viability) of the following compound: CCc1c2c(nc3ccc(O)cc13)-c1cc3c(c(=O)n1C2)COC(=O)[C@]3(O)CC + COC1C(OC(N)=O)C(O)C(Oc2ccc3c(O)c(NC(=O)c4ccc(O)c(CC=C(C)C)c4)c(=O)oc3c2C)OC1(C)C
12.9
